Taken from patent US20170342144A1.

Biological target: T1, human TGFβ2 (human, UniProt P61812 303-414)
T1 construct: also called TGFβ2 homodimer
T1 sequence: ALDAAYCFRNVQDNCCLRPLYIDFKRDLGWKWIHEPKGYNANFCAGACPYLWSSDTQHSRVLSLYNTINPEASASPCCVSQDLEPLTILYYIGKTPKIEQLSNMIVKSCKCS
Assay: Biacore off-rate vs wt GC1008, 50 nM
Entries and their measured kd var/kd wt follow.
Respond using a number only.

{"columns": ["binder", "kd var/kd wt"],
 "data": [
  ["D56K (antibody, V domains shown, GC1008 IgG4 variant) VH: QVQLVQSGAEVKKPGSSVKVSCKASGYTFSSNVISWVRQAPGQGLEWMGGVIPIVKIANYAQRFKGRVTITADESTSTTYMELSSLRSEDTAVYYCASTLGLVLDAMDYWGQGTLVTVSS VL: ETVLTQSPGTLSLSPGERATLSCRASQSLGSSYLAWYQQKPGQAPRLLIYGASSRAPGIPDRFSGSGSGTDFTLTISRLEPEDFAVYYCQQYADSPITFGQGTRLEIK", 1.3],
  ["S30H (antibody, V domains shown, GC1008 IgG4 variant) VH: QVQLVQSGAEVKKPGSSVKVSCKASGYTFHSNVISWVRQAPGQGLEWMGGVIPIVDIANYAQRFKGRVTITADESTSTTYMELSSLRSEDTAVYYCASTLGLVLDAMDYWGQGTLVTVSS VL: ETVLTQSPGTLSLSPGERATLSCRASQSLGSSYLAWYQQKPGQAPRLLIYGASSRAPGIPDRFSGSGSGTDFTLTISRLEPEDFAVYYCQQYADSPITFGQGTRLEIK", 0.8]
]}

Now examine the next entry.
Fill blank: measured kd var/kd wt of the binder I54P (antibody, V domains shown, GC1008 IgG4 variant) VH: QVQLVQSGAEVKKPGSSVKVSCKASGYTFSSNVISWVRQAPGQGLEWMGGVIPPVDIANYAQRFKGRVTITADESTSTTYMELSSLRSEDTAVYYCASTLGLVLDAMDYWGQGTLVTVSS VL: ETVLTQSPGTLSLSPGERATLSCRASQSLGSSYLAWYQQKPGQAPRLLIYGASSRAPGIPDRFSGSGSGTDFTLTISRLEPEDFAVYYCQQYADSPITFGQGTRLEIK is ____.
1.3
